Origin of values: patent US8598190B2

target: recombinant human mPGES-1 (Homo sapiens); construct: made in house; host or cells: Rosetta E. coli (microsomal/membrane fraction); assay: mPGES-1 inhibition test (microsomes, HTRF detection of PGE2); assay type: biochemical
Sequence (O14684 whole entry): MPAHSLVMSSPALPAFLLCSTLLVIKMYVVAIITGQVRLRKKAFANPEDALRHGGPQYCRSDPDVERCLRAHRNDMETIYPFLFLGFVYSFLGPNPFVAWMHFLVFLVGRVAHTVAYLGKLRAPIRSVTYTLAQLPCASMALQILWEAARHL
endpoint name: inhibition at 10 µM (%)

- line notation: "O=C(Nc1cc(C2CCC2)ccn1)c1cc2[nH]c(Nc3c(Cl)cncc3Cl)nc2cn1"
  system under test: "recombinant human mPGES-1 (Homo sapiens)"
  display unit: "%"
  measurement: 100
- line notation: "O=C(Nc1cc(C(F)(F)F)ccn1)c1cc2[nH]c(Nc3c(F)cccc3C(F)(F)F)nc2cn1"
  system under test: "recombinant human mPGES-1 (Homo sapiens)"
  display unit: "%"
  measurement: 99
- line notation: "Cn1c(Nc2c(F)cccc2Cl)nc2cc(C(=O)NCc3ncccc3C3CC3)ncc21"
  system under test: "recombinant human mPGES-1 (Homo sapiens)"
  display unit: "%"
  measurement: 100
- line notation: "CC(C)c1ccc(NC(=O)c2cc3[nH]c(Nc4c(Cl)cncc4Cl)nc3cn2)nc1"
  system under test: "recombinant human mPGES-1 (Homo sapiens)"
  display unit: "%"
  measurement: 97
- line notation: "Cc1cc(NC(=O)c2cc3[nH]c(Nc4c(Cl)cccc4Cl)nc3cn2)ncc1F"
  system under test: "recombinant human mPGES-1 (Homo sapiens)"
  display unit: "%"
  measurement: 100
- line notation: "Cn1c(Nc2c(Cl)cncc2Cl)nc2cc(C(=O)N[C@H]3CC[C@H](C(F)(F)F)CC3)ncc21"
  system under test: "recombinant human mPGES-1 (Homo sapiens)"
  display unit: "%"
  measurement: 100
- line notation: "O=C(Nc1cc(C(F)(F)F)ccn1)c1cc2[nH]c(Nc3c(Cl)cc(F)cc3Cl)nc2cn1"
  system under test: "recombinant human mPGES-1 (Homo sapiens)"
  display unit: "%"
  measurement: 100
- line notation: "Cc1cc(NC(=O)c2cc3nc(Nc4c(Cl)cccc4Cl)n(C)c3cn2)ncc1Cl"
  system under test: "recombinant human mPGES-1 (Homo sapiens)"
  display unit: "%"
  measurement: 100
- line notation: "Cn1c(Nc2c(Cl)cccc2Cl)nc2cc(C(=O)NC3CCC(C)(C)CC3)ncc21"
  system under test: "recombinant human mPGES-1 (Homo sapiens)"
  display unit: "%"
  measurement: 100
- line notation: "Cn1c(Nc2c(Cl)cccc2Cl)nc2cc(C(=O)N[C@H]3CC[C@H](C(F)(F)F)CC3)ncc21"
  system under test: "recombinant human mPGES-1 (Homo sapiens)"
  display unit: "%"
  measurement: 100
- line notation: "Cc1cnc(NC(=O)c2cc3[nH]c(Nc4c(Cl)cncc4Cl)nc3cn2)cc1C1CC1"
  system under test: "recombinant human mPGES-1 (Homo sapiens)"
  display unit: "%"
  measurement: 99
- line notation: "Cn1c(Nc2c(Cl)cncc2Cl)nc2cc(C(=O)Nc3ccc(Br)cc3)ncc21"
  system under test: "recombinant human mPGES-1 (Homo sapiens)"
  display unit: "%"
  measurement: 96
- line notation: "Cc1cc(C(F)(F)F)cc(NC(=O)c2cc3[nH]c(Nc4c(Cl)cccc4Cl)nc3cn2)n1"
  system under test: "recombinant human mPGES-1 (Homo sapiens)"
  display unit: "%"
  measurement: 100
- line notation: "Cn1c(Nc2c(F)cccc2Cl)nc2cc(C(=O)N[C@H]3CC[C@H](C(F)(F)F)CC3)ncc21"
  system under test: "recombinant human mPGES-1 (Homo sapiens)"
  display unit: "%"
  measurement: 100
- line notation: "Cn1c(Nc2c(Cl)cccc2Cl)nc2cc(C(=O)Nc3cc(C4CC4)ccn3)ncc21"
  system under test: "recombinant human mPGES-1 (Homo sapiens)"
  display unit: "%"
  measurement: 94
- line notation: "O=C(NC1CCC2(CC1)CC2)c1cc2[nH]c(Nc3c(Cl)cccc3Cl)nc2cn1"
  system under test: "recombinant human mPGES-1 (Homo sapiens)"
  display unit: "%"
  measurement: 99
